B1: HDV Ribozyme (parent)
chain: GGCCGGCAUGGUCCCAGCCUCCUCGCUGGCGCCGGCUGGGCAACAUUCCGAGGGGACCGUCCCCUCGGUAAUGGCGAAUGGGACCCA

# Variants of: B1
# assay-overview: self-cleavage, relative activity (ratio to wild type); higher = more cleavage; co-transcriptional
Provide the reported self-cleavage of each item.
One number for each entry.

Reference set, count: 2
mutant_designation="G54C G73U" val=0.205
mutant_designation="C19U A51C" val=0.204

Q) Look up self-cleavage for this variant: G54C G74C
A) 0.198
